# experimental-target: GLP-1R (Homo sapiens, UniProt P43220)
# Construct: host or cells: GLP-1R CRE-bla CHO-K1 cells
# Sequence (P43220 24-463): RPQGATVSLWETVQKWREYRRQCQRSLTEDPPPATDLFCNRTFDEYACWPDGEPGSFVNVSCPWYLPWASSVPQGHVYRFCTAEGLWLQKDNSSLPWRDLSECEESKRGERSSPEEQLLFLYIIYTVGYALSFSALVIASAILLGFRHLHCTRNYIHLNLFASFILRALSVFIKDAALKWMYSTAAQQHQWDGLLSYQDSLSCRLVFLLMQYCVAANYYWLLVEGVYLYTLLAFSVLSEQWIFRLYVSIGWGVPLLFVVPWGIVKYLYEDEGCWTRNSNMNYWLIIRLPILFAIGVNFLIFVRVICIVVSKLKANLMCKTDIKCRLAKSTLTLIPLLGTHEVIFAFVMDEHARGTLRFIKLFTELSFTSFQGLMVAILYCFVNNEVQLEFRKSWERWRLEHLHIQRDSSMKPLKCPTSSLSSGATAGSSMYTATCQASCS
# Sequence (P01275 100-127 partner limits assumed): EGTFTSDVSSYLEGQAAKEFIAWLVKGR
# protocol-notes: EC20 GLP-1(9-36) PAM cAMP assay: dose response of compound in the presence of fixed concentration of GLP-1(9-36)
# Assay type: cell-based
# condition-context: dose response of compound in presence of fixed concentration of GLP-1(9-36), GLP-1R CRE-bla CHO-K1 cells, read-out: EC20 GLP-1(9-36) PAM EC50
reported-property: EC50

Examples from the recorded data:
CCCCCCCOc1ccc(-c2cnc(-c3ccc(CC(NC(=O)c4ccc(C(C)(C)C)s4)C(=O)N[C@H](C(=O)O)C(C)C)cc3)nc2)cc1 (stereo partly drawn) [Compound 407]: < 800 nM
CCCCCCCOc1ccc(-c2cnc(-c3ccc(C[C@H](NC(=O)c4ccc(C(C)(C)C)cc4)C(=O)NC(C(=O)O)c4nc(C)oc4C)cc3)nc2)cc1 (stereo partly drawn) [Compound 488]: 800 to 2500 nM

-- ask Give its EC50 value. Item: C[C@@H](NC(=O)[C@H](Cc1ccc(-c2ncc(-c3ccc(-c4ccc(F)cc4F)cc3)cn2)cc1)NC(=O)c1ccc(C(C)(C)C)s1)C(=O)O [Compound 1149]
-- reply 5000 to 10000 nM

FYI, the data here is from patent US10034886B2.
